assay info: TRM-201-PK-102 single-dose four-period crossover pharmacokinetic study, fasted healthy subjects
Format: in vivo, human
conditions: human, plasma, oral, 17.5 mg, 102 study, Black or African-American subjects, read-out: arithmetic mean AUC0-∞
experimental readout: AUC(0-inf) (ng·h/mL)
Give just the numeric value; ng·h/mL need not be written.

Recorded result, `CS(=O)(=O)c1ccc(C2=C(c3ccccc3)C(=O)OC2)cc1` , AUC(0-inf): 2840

====

assay info: TRM-201-PK-102 single-dose four-period crossover pharmacokinetic study, fasted healthy subjects
Format: in vivo, human
conditions: human, plasma, oral, 17.5 mg, 102 study, non-Hispanic or non-Latino subjects, read-out: geometric mean AUC0-∞
experimental readout: AUC(0-inf) (ng·h/mL)
Give just the numeric value; ng·h/mL need not be written.

Recorded result, CS(=O)(=O)c1ccc(C2=C(c3ccccc3)C(=O)OC2)cc1 [TRM-201] , AUC(0-inf): 2910

====

assay info: TRM-201-PK-102 single-dose four-period crossover pharmacokinetic study, fasted healthy subjects
Format: in vivo, human
conditions: human, plasma, oral, 25 mg, 102 study, White subjects, read-out: arithmetic mean Cmax
experimental readout: Cmax (ng/mL)
Give just the numeric value; ng/mL need not be written.

Recorded result, `CS(=O)(=O)c1ccc(C2=C(c3ccccc3)C(=O)OC2)cc1` , Cmax: 351

====

assay info: TRM-201-PK-102 single-dose four-period crossover pharmacokinetic study, fasted healthy subjects
Type: in vivo, human
conditions: human, plasma, oral, 12.5 mg, 102 study, body weight 47-70 kg, read-out: geometric mean AUC0-∞
experimental readout: AUC(0-inf) (ng·h/mL)
Give just the numeric value; ng·h/mL need not be written.

Recorded result, CS(=O)(=O)c1ccc(C2=C(c3ccccc3)C(=O)OC2)cc1 [TRM-201] , AUC(0-inf): 1690

====

assay info: TRM-201-PK-102 single-dose four-period crossover pharmacokinetic study, fasted healthy subjects
Format: in vivo, human
conditions: human, plasma, oral, 20 mg, 102 study, body weight 77.1-90 kg, read-out: geometric mean AUC0-∞
Procedure: A Single-Dose, Open-Label, Phase 1, Four-Period Crossover Pharmacokinetic Study of TRM-201 (Rofecoxib) 12.5 mg, 17.5 mg, 20 mg and 25 mg Administered to Healthy Subjects in a Fasting State, with Comparison to Historical Pharmacokinetic Parameters of Previously Marketed Rofecoxib (“TRM-201-PK-102” or “102 PK Study”) […] In each of the four dosing periods, subjects fasted overnight for at least 10 hours before study drug dosing. […] Pharmacokinetic and safety endpoints were evaluated. […]
experimental readout: AUC(0-inf) (ng·h/mL)
Give just the numeric value; ng·h/mL need not be written.

Recorded result, CS(=O)(=O)c1ccc(C2=C(c3ccccc3)C(=O)OC2)cc1 [TRM-201] , AUC(0-inf): 3170

====

assay info: TRM-201-PK-102 single-dose four-period crossover pharmacokinetic study, fasted healthy subjects
Assay type: in vivo, human
conditions: 17.5 mg, 15 minutes
experimental readout: arithmetic mean plasma concentration (ng/mL)
Give just the numeric value; ng/mL need not be written.

Recorded result, `CS(=O)(=O)c1ccc(C2=C(c3ccccc3)C(=O)OC2)cc1` , arithmetic mean plasma concentration: 2.42

====

assay info: TRM-201-PK-102 single-dose four-period crossover pharmacokinetic study, fasted healthy subjects
Assay type: in vivo, human
conditions: human, plasma, oral, 17.5 mg, 102 study, body weight 70.1-77 kg, read-out: geometric mean AUC0-∞
experimental readout: AUC(0-inf) (ng·h/mL)
Give just the numeric value; ng·h/mL need not be written.

Recorded result, `CS(=O)(=O)c1ccc(C2=C(c3ccccc3)C(=O)OC2)cc1` , AUC(0-inf): 3730
